experiment: Toxicity in human MCF7 cells assessed as reduction in cell number after 48 hrs by Hoechst 33342 staining based assay
parameter: IC50 at 48 h

Any idea what IC50 at 48 h was measured for CCCCCCCCCCCCCCCCCCC[C@@H](O)C[C@@H]1C=CCCN1C ?
> 25 µM

Any idea what IC50 at 48 h was measured for CCCCCCCCCCCCCCCCCCC[C@H](O)C[C@@H]1C=CCCN1C ?
> 25 µM

Any idea what IC50 at 48 h was measured for CCCCCCCCCCCCCCCCC[C@@H](O)C[C@@H]1C=CCCN1C ?
> 25 µM

Sourced from ChEMBL document CHEMBL4715835
